molecular target: hemoglobin (Hb) (Homo sapiens, UniProt P68871+P69905); test: Hydrogen peroxide scavenging ability with hemoglobin (Amplex Red H2O2 assay); type: biochemical; conditions: 10 μM H2O2, 80 μg/ml hemoglobin, 37° C. about 30 minutes
Sequence (P69905 2-142 limits assumed): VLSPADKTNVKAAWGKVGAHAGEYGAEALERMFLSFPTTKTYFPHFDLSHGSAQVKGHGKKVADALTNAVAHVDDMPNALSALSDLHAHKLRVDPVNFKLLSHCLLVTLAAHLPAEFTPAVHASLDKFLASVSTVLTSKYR
Sequence (P68871 2-147 limits assumed): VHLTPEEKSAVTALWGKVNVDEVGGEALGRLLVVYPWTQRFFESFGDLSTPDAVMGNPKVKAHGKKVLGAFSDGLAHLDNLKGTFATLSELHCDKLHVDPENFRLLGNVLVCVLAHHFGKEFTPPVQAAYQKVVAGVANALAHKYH
Collected pEC50 values appear next to each entry.
// pEC50 here means minus log10 of the molar concentration (mol/L)

{"columns": ["test.smiles", "observed.measurement"],
 "data": [
  ["CNc1ccc(NCCc2ccc(Cl)cc2)cc1", 6.28],
  ["CNc1ccc(NCCc2ccc(C(F)(F)F)cc2)cc1", 6.72],
  ["Nc1ccc(NCCc2cccc(F)c2)cc1", 6.11],
  ["CN(C)c1ccc(NCCc2ccccc2Cl)cc1", 6.24]
]}

Let's switch to this molecule now.
The reported pEC50 of the molecule "CN(C)c1ccc(NCCc2cccc(C(F)(F)F)c2)cc1" was 6.25
